assay: Viability / viable cell recovery of cultured murine cells (trypan blue dye exclusion); assay type: cell-based; settings: mouse, trypan blue exclusion
readout.name: viability at 0.001 µM (%)
State just the number; it will be interpreted in %.

Query: For the compound C=C1/C(=C\C=C2/CCC[C@]3(C)[C@@H]([C@H](C)/C=C/[C@H](C)C(C)(C)O)CC[C@@H]23)C[C@@H](O)C[C@@H]1O [1α,25-(OH)2 --D2, 1α,25-Dihydroxyergocalciferol] , give its measured viability at 0.001 µM value.
Response: 58

----------
system: IgG production by human lymphocytes; experiment: Inhibition of IgG production by human lymphocytes in vitro (SAC activation, ELISA); assay type: cell-based; conditions: 1 × 10^-9 molar; 8 days; vehicle control 0.78 ± 0.09
Quick rule: IgG μg per culture (x ± S.E.M.) of at least 0.2 μg per culture means Criterion met, below that means Criterion not met.

Known results for compounds:
* C=C1/C(=C\C=C2/CCC[C@]3(C)[C@@H]([C@H](C)CC[C@@H](F)C(C)(C)O)CC[C@@H]23)C[C@@H](O)C[C@@H]1O [24R-F--1α,25-(OH)2 --D3] | Criterion met
* C=C1/C(=C\C=C2/CCC[C@]3(C)[C@@H]([C@H](C)CCC(F)(F)C(C)(C)O)CC[C@@H]23)C[C@@H](O)C[C@@H]1O [24,24-(F)2 --1α,25-(OH)2 --D3] | Criterion not met
* C=C1/C(=C\C=C2/CCC[C@]3(C)[C@@H]([C@H](C)C[C@H](O)CC(C)(C)O)CC[C@@H]23)C[C@@H](O)C[C@@H]1O [1α,23S,25-(OH)3 --D3, 1α,23S,25-Trihydroxycholecalciferol] | Criterion met
* C=C1/C(=C\C=C2/CCC[C@]3(C)[C@@H]([C@H](C)CCCC(C)(C)O)CC[C@@H]23)C[C@@H](O)C[C@@H]1F [1α-F--25-OH--D3, 1α-Fluoro-25-hydroxycholecalciferol] | Criterion not met
* C=C1/C(=C\C=C2/CCC[C@]3(C)[C@@H]([C@H](C)/C=C/[C@H](C)[C@](C)(O)CO)CC[C@@H]23)C[C@@H](O)C[C@@H]1O [1α,25S,26-(OH)3 --D2, 1α,25S,26-Trihydroxyergocalciferol] | Criterion not met
* C=C1/C(=C\C=C2/CCC[C@]3(C)[C@@H]([C@H](C)C=CC[C@](C)(O)CO)CC[C@@H]23)C[C@@H](O)C[C@@H]1O [1α,25S,26-(OH)3 --Δ^22 -D3] | Criterion not met

Could you now look at the following compound, please?
Query: Determine whether measured IgG μg per culture (x ± S.E.M.) meets or exceeds 0.2 μg per culture for C=C1/C(=C/C=C2\CCC[C@]3(C)[C@@H]([C@H](C)CCCC(C)(C)O)CC[C@@H]23)C[C@@H](O)C[C@@H]1O [5,6-trans-1α,25-(OH)2 --D3]
Response: Criterion met

This collection of values is drawn from patent US4749710A.
